meta.source: patent US7786083B2

// Specific Activity lookup, one value per entry
tested on: metastin receptors; assay: Measurement of agonist activity by assaying changes in intracellular calcium ion level (FLIPR, Fluo-4 NW); type: cell-based, human; details: specific activity of the EC50 of a test compound based on the EC50 of Metastin (45-54), metastin receptor expression CHO cells
*1 amine or outer side, *2 acyl side, *3 side chain or, on linkers, in order; H or OH if unused. Where a SMILES comes first, the peptide text is derived from it. [ ]: non-standard residue; d: D form. X6 = O=C(COC[C@H](Cc1ccccc1)N[*:1])[*:2]; Phe(2-Me) = Cc1ccccc1C[C@H](N)C(=O)O; Arg(Me) = CNC(=N)NCCC[C@H](N)C(=O)O; Hyp = O=C(O)[C@@H]1C[C@@H](O)CN1
Output spec: single numeric token, no unit.

Here's what some known entries look like.
CNC(=N)NCCC[C@H](NC(=O)[C@H](CC(C)C)NC(=O)CNC(=O)[C@H](Cc1ccccc1C)NC(=O)[C@@H](NC(=O)[C@H](CC(N)=O)NC(=O)[C@@H]1C[C@@H](O)CN1C(=O)[C@@H](Cc1ccc(O)cc1)NC(C)=O)[C@@H](C)O)C(=O)N[C@@H](Cc1c[nH]c2ccccc12)C(N)=O [Compound No. 871] (Ac-[dY][Hyp]NT[Phe(2-Me)]GL[Arg(Me)]W-NH2) : 0.7
CNC(=N)NCCC[C@H](NC(=O)[C@H](CC(C)C)NC(=O)CNC(=O)[C@H](Cc1ccccc1)NC(=O)[C@@H](NC(=O)[C@H](CC(N)=O)NC(=O)[C@H](CCC(=O)O)NC(=O)[C@@H](Cc1ccc(O)cc1)NC(C)=O)[C@@H](C)O)C(=O)N[C@@H](Cc1c[nH]c2ccccc12)C(N)=O [Compound No. 852] (Ac-[dY]ENTFGL[Arg(Me)]W-NH2) : 0.5

Next compound, Specific Activity to be filled in.
Problem: What measured Specific Activity goes with CNC(=N)NCCC[C@H](NC(=O)[C@H](CC(C)C)NC(=O)COC[C@H](Cc1ccccc1)NC(=O)[C@@H](NC(=O)[C@H](CC(N)=O)NC(=O)[C@@H]1C[C@@H](O)CN1C(=O)[C@@H](Cc1ccc(O)cc1)NC(C)=O)[C@@H](C)O)C(=O)N[C@@H](Cc1c[nH]c2ccccc12)C(N)=O [Compound No. 834] (Ac-[dY][Hyp]NT[X6]L[Arg(Me)]W-NH2) ?
Solution: 0.5

====

test system: metastin receptors; assay: Measurement of agonist activity by assaying changes in intracellular calcium ion level (FLIPR, Fluo-4 NW); assay type: cell-based, human; details: specific activity of the EC50 of a test compound based on the EC50 of Metastin (45-54), metastin receptor expression CHO cells
Where a SMILES comes first, the peptide text is derived from it. [ ]: non-standard residue; d: D form. Arg(Me) = CNC(=N)NCCC[C@H](N)C(=O)O; Dap(CONH2) = NC(=O)NC[C@H](N)C(=O)O; Ala(cPr) = N[C@@H](CC1CC1)C(=O)O; Hyp = O=C(O)[C@@H]1C[C@@H](O)CN1; Cha = N[C@@H](CC1CCCCC1)C(=O)O; Nva = CCC[C@H](N)C(=O)O
endpoint.name: Specific Activity
Output spec: single numeric token, no unit.

Here's what some known entries look like.
CNC(=N)NCCC[C@H](NC(=O)[C@H](CC1CCCCC1)NC(=O)CNC(=O)[C@H](CC1CCCCC1)NC(=O)[C@@H](NC(=O)[C@H](CC(N)=O)NC(=O)[C@@H]1C[C@@H](O)CN1C(=O)[C@@H](Cc1ccc(O)cc1)NC(C)=O)[C@@H](C)O)C(=O)N[C@@H](Cc1c[nH]c2ccccc12)C(N)=O [Compound No. 934] (Ac-[dY][Hyp]NT[Cha]G[Cha][Arg(Me)]W-NH2) : 3.5
CNC(=N)NCCC[C@H](NC(=O)[C@H](CC1CC1)NC(=O)CNC(=O)[C@H](CC1CCCCC1)NC(=O)[C@@H](NC(=O)[C@H](CNC(N)=O)NC(=O)[C@@H]1C[C@@H](O)CN1C(=O)[C@@H](Cc1ccc(O)cc1)NC(C)=O)[C@@H](C)O)C(=O)N[C@@H](Cc1c[nH]c2ccccc12)C(N)=O [Compound No. 953] (Ac-[dY][Hyp][Dap(CONH2)]T[Cha]G[Ala(cPr)][Arg(Me)]W-NH2) : 0.5

Problem: What measured Specific Activity goes with CCC[C@H](NC(=O)CNC(=O)[C@H](Cc1ccccc1)NC(=O)[C@@H](NC(=O)[C@H](CC(N)=O)NC(=O)[C@@H]1C[C@@H](O)CN1C(=O)[C@@H](Cc1ccc(O)cc1)NC(C)=O)[C@@H](C)O)C(=O)N[C@@H](CCCNC(=N)NC)C(=O)N[C@@H](Cc1c[nH]c2ccccc12)C(N)=O [Compound No. 918] (Ac-[dY][Hyp]NTFG[Nva][Arg(Me)]W-NH2) ?
Solution: 0.7
